Molecular target: T1, purified human activated C1s protein, two-chain form (Homo sapiens, UniProt P09871 16-688)
T1 construct: Also used here for C1s acting in human serum assays; also called human C1s; active C1s
T1 sequence: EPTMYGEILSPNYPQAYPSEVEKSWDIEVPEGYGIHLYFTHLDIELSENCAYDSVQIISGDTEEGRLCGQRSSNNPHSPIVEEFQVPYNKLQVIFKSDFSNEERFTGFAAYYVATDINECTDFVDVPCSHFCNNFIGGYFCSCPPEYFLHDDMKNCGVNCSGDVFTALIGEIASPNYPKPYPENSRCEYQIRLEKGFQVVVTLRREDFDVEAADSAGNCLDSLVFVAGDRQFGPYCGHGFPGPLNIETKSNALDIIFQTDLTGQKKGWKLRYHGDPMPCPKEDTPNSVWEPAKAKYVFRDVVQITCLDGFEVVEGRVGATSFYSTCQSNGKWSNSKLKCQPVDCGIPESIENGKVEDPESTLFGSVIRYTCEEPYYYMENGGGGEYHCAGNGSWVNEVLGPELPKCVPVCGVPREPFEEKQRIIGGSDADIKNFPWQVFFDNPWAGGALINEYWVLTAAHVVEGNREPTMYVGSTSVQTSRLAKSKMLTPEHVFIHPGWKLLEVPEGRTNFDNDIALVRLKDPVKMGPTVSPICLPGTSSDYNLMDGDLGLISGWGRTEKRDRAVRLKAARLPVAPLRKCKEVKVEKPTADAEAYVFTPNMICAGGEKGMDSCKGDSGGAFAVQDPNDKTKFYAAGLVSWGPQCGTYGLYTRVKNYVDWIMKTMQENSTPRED
Assay: kinetic binding measurement, method not stated; Table 9, activated C1s
observable: Kd (pM)
Reply with just the number (in pM).

Sure, the documented Kd for VH1/Vk3 (antibody, V domains shown, member of group m7; also called VH1/Vκ3; VH variant 1 + Vk variant 3) VH: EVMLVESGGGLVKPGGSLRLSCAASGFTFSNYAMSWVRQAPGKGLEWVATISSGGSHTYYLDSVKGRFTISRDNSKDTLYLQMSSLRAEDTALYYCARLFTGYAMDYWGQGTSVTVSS VL: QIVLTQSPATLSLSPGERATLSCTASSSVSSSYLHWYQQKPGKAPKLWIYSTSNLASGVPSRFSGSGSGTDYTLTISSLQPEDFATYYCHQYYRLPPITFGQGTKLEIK is 376

Sure, the documented Kd for VH2/Vk2 (antibody, V domains shown, member of group m7; also called VH2/Vκ2; VH variant 2 + Vk variant 2) VH: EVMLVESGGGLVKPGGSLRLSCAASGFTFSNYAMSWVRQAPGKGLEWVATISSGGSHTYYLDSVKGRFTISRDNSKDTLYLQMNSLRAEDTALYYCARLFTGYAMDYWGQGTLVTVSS VL: QIVLTQSPATLSLSPGERATMSCTASSSVSSSYLHWYQQKPGKAPKLWIYSTSNLASGVPSRFSGSGSGTDYTLTISSLQPEDFATYYCHQYYRLPPITFGQGTKLEIK is 273

Sure, the documented Kd for VH4/Vk1 (antibody, V domains shown, member of group m7; also called VH4/Vκ1; VH variant 4 + Vk variant 1) VH: EVQLVESGGGLVKPGGSLRLSCAASGFTFSNYAMSWVRQAPGKGLEWVATISSGGSHTYYLDSVKGRFTISRDNSKNTLYLQMNSLRAEDTALYYCARLFTGYAMDYWGQGTLVTVSS VL: QIVLTQSPAILSLSPGERATMSCTASSSVSSSYLHWYQQKPGKAPKLWIYSTSNLASGVPSRFSGSGSGTFYTLTISSLQAEDFATYYCHQYYRLPPITFGQGTKLEIK is 228
